# Test system: 379773-124-R-J2-PDC complex spheroids, viability % test/control;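 further: compound exposure lasted seven days before the viability readout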
# assay comment: Anticancer human tumor 379773-124-R-J2-PDC patient-derived endometrial carcinoma cell line growth inhibition [CLK]; active means viability on the fitted dose curve at most 10% of control; inactive means the rest
# recorded conditions: second compound 3.16 µM; first compound 1 µM
Classes used: yes = active, no = inactive

compound	answer label
CCc1c2c(nc3ccc(O)cc13)-c1cc3c(c(=O)n1C2)COC(=O)[C@]3(O)CC + CNC(=O)c1ccc(Nc2nc(OC3CCCC3)c3c(-c4ccc5nc(C)oc5c4)c[nH]c3n2)c(OC)c1	yes
CC(=O)O[C@H]1C(=O)[C@@]2(C)[C@H]([C@H](OC(=O)c3ccccc3)[C@]3(O)C[C@H](OC(=O)[C@H](O)[C@@H](NC(=O)c4ccccc4)c4ccccc4)C(C)=C1C3(C)C)[C@]1(OC(C)=O)CO[C@@H]1C[C@@H]2O + CN1CCN(c2cc(C(=O)Nc3cc4cc(-c5cnn(C)c5)ccc4cn3)ccn2)CC1	yes
COc1ccc([C@@H](O)c2cc(-c3ncnc4cc(N5CCOCC5)ccc34)c(F)cc2Cl)nn1 + CN1CCN(c2cc(C(=O)Nc3cc4cc(-c5cnn(C)c5)ccc4cn3)ccn2)CC1	yes
Nc1ccccc1NC(=O)c1ccc(CNC(=O)OCc2cccnc2)cc1 + CN1CCN(c2cc(C(=O)Nc3cc4cc(-c5cnn(C)c5)ccc4cn3)ccn2)CC1	yes
CC1COCCN1c1cc(C2(S(C)(=N)=O)CC2)nc(-c2ccnc3[nH]ccc23)n1 (stereo not given) + CN1CCN(c2cc(C(=O)Nc3cc4cc(-c5cnn(C)c5)ccc4cn3)ccn2)CC1	yes
CC1(C)CCC(CN2CCN(c3ccc(C(=O)NS(=O)(=O)c4ccc(NCC5CCOCC5)c([N+](=O)[O-])c4)c(Oc4cnc5[nH]ccc5c4)c3)CC2)=C(c2ccc(Cl)cc2)C1 + CN1CCN(c2cc(C(=O)Nc3cc4cc(-c5cnn(C)c5)ccc4cn3)ccn2)CC1	yes
CC(CO)NC(=O)c1cc(-c2ccc(Cl)cc2)nn(-c2cnn(C)c2)c1=O (stereo not given) + CN1CCN(c2cc(C(=O)Nc3cc4cc(-c5cnn(C)c5)ccc4cn3)ccn2)CC1	yes
COC1C=CCC(C)C(C)S(=O)(=O)NC(=O)c2ccc3c(c2)N(CC2CCC21)CC1(CCCc2cc(Cl)ccc21)CO3 (stereo not given) + CNC(=O)c1ccc(Nc2nc(OC3CCCC3)c3c(-c4ccc5nc(C)oc5c4)c[nH]c3n2)c(OC)c1	no
O=C(c1cc(Cc2n[nH]c(=O)c3ccccc23)ccc1F)N1CCN(C(=O)C2CC2)CC1 + CN1CCN(c2cc(C(=O)Nc3cc4cc(-c5cnn(C)c5)ccc4cn3)ccn2)CC1	yes
CC1COCCN1c1cc(C2(S(C)(=N)=O)CC2)nc(-c2ccnc3[nH]ccc23)n1 (stereo not given) + CNC(=O)c1ccc(Nc2nc(OC3CCCC3)c3c(-c4ccc5nc(C)oc5c4)c[nH]c3n2)c(OC)c1	no
CC(Nc1ccc2c(c1)OCCn1cc(N3C(=O)OCC3C(F)F)nc1-2)C(N)=O (stereo not given) + CN1CCN(c2cc(C(=O)Nc3cc4cc(-c5cnn(C)c5)ccc4cn3)ccn2)CC1	yes
C#Cc1c(F)ccc2cc(O)cc(-c3ncc4c(N5CC6CCC(C5)N6)nc(OCC56CCCN5CC(F)C6)nc4c3F)c12 (stereo not given) + CN1CCN(c2cc(C(=O)Nc3cc4cc(-c5cnn(C)c5)ccc4cn3)ccn2)CC1	yes
C#Cc1c(F)ccc2cc(O)cc(-c3ncc4c(N5CC6CCC(C5)N6)nc(OCC56CCCN5CC(F)C6)nc4c3F)c12 (stereo not given) + CNC(=O)c1ccc(Nc2nc(OC3CCCC3)c3c(-c4ccc5nc(C)oc5c4)c[nH]c3n2)c(OC)c1	no
C=CC(=O)N1CCN(c2nc(=O)n(-c3c(C)ccnc3C(C)C)c3nc(-c4c(O)cccc4F)c(F)cc23)C(C)C1 (stereo not given) + CN1CCN(c2cc(C(=O)Nc3cc4cc(-c5cnn(C)c5)ccc4cn3)ccn2)CC1	yes
CCCS(=O)(=O)Nc1ccc(F)c(C(=O)c2c[nH]c3ncc(-c4ccc(Cl)cc4)cc23)c1F + CN1CCN(c2cc(C(=O)Nc3cc4cc(-c5cnn(C)c5)ccc4cn3)ccn2)CC1	yes
CC(Nc1ccc2c(c1)OCCn1cc(N3C(=O)OCC3C(F)F)nc1-2)C(N)=O (stereo not given) + CNC(=O)c1ccc(Nc2nc(OC3CCCC3)c3c(-c4ccc5nc(C)oc5c4)c[nH]c3n2)c(OC)c1	no
O=c1[nH]cc(F)c(=O)[nH]1 + CN1CCN(c2cc(C(=O)Nc3cc4cc(-c5cnn(C)c5)ccc4cn3)ccn2)CC1	yes
CC(CO)NC(=O)c1cc(-c2ccc(Cl)cc2)nn(-c2cnn(C)c2)c1=O (stereo not given) + CNC(=O)c1ccc(Nc2nc(OC3CCCC3)c3c(-c4ccc5nc(C)oc5c4)c[nH]c3n2)c(OC)c1	no
COc1cccc2c1C(=O)c1c(O)c3c(c(O)c1C2=O)CC(O)(C(=O)CO)CC3OC1CC(N)C(O)C(C)O1 (stereo not given) + CN1CCN(c2cc(C(=O)Nc3cc4cc(-c5cnn(C)c5)ccc4cn3)ccn2)CC1	yes
CC1(C)CCC(CN2CCN(c3ccc(C(=O)NS(=O)(=O)c4ccc(NCC5CCOCC5)c([N+](=O)[O-])c4)c(Oc4cnc5[nH]ccc5c4)c3)CC2)=C(c2ccc(Cl)cc2)C1 + CNC(=O)c1ccc(Nc2nc(OC3CCCC3)c3c(-c4ccc5nc(C)oc5c4)c[nH]c3n2)c(OC)c1	no
